Target: T1, human MYCT1 (hMYCT1) (human, UniProt Q8N699 1-235, limits assumed)
T1 construct: also called MYC Target 1
T1 sequence: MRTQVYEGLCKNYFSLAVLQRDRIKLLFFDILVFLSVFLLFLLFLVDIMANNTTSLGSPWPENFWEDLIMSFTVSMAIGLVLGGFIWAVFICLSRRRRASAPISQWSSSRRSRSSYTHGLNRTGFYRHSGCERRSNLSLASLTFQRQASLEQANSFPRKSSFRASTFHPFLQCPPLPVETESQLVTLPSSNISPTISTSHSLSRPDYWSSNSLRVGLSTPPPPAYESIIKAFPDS
Experiment: SPR full kinetics, multicycle, antibody captured via anti-human Fc IgG, MYCT1 0.625-10 nM as analyte, 1:1 binding model
Quick list: Kd per entry.
Just the number please, in nM, no unit attached.

11B6-z12-p3-uIgG1K (antibody, V domains shown) VH: EVQLVESGGGLVKPGGSLRLSCAASGFTFSDFGIHWVRQAPGKGLEWVGYISSGSRTIHYADTVKGRFTISRDNAKNSLYLQMNSLRAEDTAIYYCARRDWDPEWLAYWGQGTLVTVSS VL: DVVMTQSPLSLPVTPGEPASISCRSSLSLVHSNAHTYLHWYLQKPGQSPKLLIYKVSNRFSGVPDRFSGSGSGTDFTLKIRRVEAEDVGVYFCSQSTHVPFTFGQGTKLEIK	2.35
11B6 parent antibody (antibody, V domains shown, Mouse parental variable domains; also called parent antibody (11B6); 11B6 clone) VH: EVQLVESGGGLVKPGGSLKLSCAASGFTFSDFGIHWVRQAPEKGLEWVGYISSGSRTIHYADTVKGRFTISRDNAKNTLFLQMTNLRSEDTAIYYCARRDWDPEWLAYWGQGTLVTISA VL: DVVMTQAPLSLPVSLGDQASISCRSSLSLVHSNGHTYLHWYLQKPGQSPKLLIYKVSNRFSGVPDRFSGSGSGTDFTLKIRRVEAEDLGVYFCSQSTHVPFTFGSGTKLEIK	1.2
11B6-z16-p3-uIgG1K (antibody, V domains shown, also called hzATN001; ATN001) VH: EVQLVESGGGLVKPGGSLRLSCAASGFTFSDFGIHWVRQAPGKGLEWVGYISSGSRTIHYADTVKGRFTISRDNAKNSLYLQMNSLRAEDTAVYYCARRDWDPEWLAYWGQGTLVTVSS VL: DIVMTQSPLSLPVTPGEPASISCRSSLSLVHSNAHTYLHWYLQKPGQSPKLLIYKVSNRFSGVPDRFSGSGSGTDFTLKISRVEAEDVGVYFCSQSTHVPFTFGQGTKLEIK	2.53

Provide one value: measured Kd of 11B6-z10-p3-uIgG1K (antibody, V domains shown) VH: EVQLVESGGGLVKPGGSLRLSCAASGFTFSDFGIHWVRQAPGKGLEWVGYISSGSRTIHYADTVKGRFTISRDNAKNSLYLQMNSLRAEDTAVYYCARRDWDPEWLAYWGQGTLVTVSS VL: DVVMTQSPLSLPVTPGEPASISCRSSLSLVHSNAHTYLHWYLQKPGQSPQLLIYKVSNRFSGVPDRFSGSGSGTDFTLKISRVEAEDVGVYFCSQSTHVPFTFGQGTKLEIK
3.34
